Test system: DLD-1 colon
Test summary: NCI tumour cell line growth inhibition, 48 h
The following molecules are listed with their measured TGI values.

Solved cases (2 shown):
1. O=C1NC(=O)C2(CCc3ccc(N(CCCl)CCCl)cc32)N1 (stereo unspecified) ... > 81.8 µM
2. CCN1CCC(O)(/C=C/c2ccc(Cl)cc2)C(C(=O)/C=C/c2ccc(Cl)cc2)C1 (stereo unspecified) ... 33.8 µM

Qu. Please give the measured TGI for this molecule: `C(=NCCN=Cc1cccc2ccccc12)c1cccc2ccccc12`
Ans. > 100 µM

Qu. Repeat with Cc1ccc(NC(=O)CC2C(=O)Nc3ccccc3S2(=O)=O)cc1C (stereo unspecified)
Ans. > 100 µM

Qu. Repeat with Nc1nc2c(ncn2CC(CO)CC(c2ccccc2)P(=O)(O)O)c(=O)[nH]1 (stereo unspecified)
Ans. > 100 µM

Qu. Repeat with C=C1CC(CC(=O)C(C)CC2CC(=C)C(=O)O2)OC1=O (stereo unspecified)
Ans. 30.4 µM

Qu. Repeat with `CCN(CC)c1ccc(N=C2C=CC(=C(C#N)C#N)c3ccccc32)c(C)c1`
Ans. 6.5 µM

Qu. Repeat with NCCSc1nc(N)c2ncn(C3OC(CO)C(O)C3O)c2n1 (stereo unspecified)
Ans. > 100 µM

Qu. Repeat with COc1cc2c(cc1OC)C(=O)N1CCCC1C(=O)S2 (stereo unspecified)
Ans. > 100 µM

Qu. Repeat with NNC(=O)N/N=C1/C(=O)N(c2ccc(Cl)c(Cl)c2)C(=O)C(=O)C1c1nc2ccccc2o1 (stereo unspecified)
Ans. > 100 µM

Qu. Repeat with `CC(=O)CC(=O)ON(C)C(=O)Cc1ccccc1`
Ans. > 100 µM

###

Tested on: MCF7 breast
Test summary: NCI tumour cell line growth inhibition, 48 h; in the data active = GI50 below about 0.43 µM; inactive = the rest
One label from this list, please: True for active, False for inactive

Qu. Could you kindly confirm the outcome this assay logged for `O=C1/C(=C/c2cccc(F)c2)CN(C(=O)C(Cl)Cl)C/C1=C\c1cccc(F)c1` ?
Ans. True

###

System: SF-295 CNS
Test summary: NCI tumour cell line growth inhibition, 48 h
The following compounds are listed with their measured TGI values.

Solved cases (10 shown):
1) C[C@H](c1ccc(Cl)cc1[N+](=O)[O-])N1C(=O)c2cc(I)ccc2NC(=O)[C@H]1c1ccc(Cl)cc1 ... > 100 µM
2) COC(=O)C(=O)C(C(=O)C(=O)Nc1nc(=S)[nH][nH]1)c1nc2ccc([N+](=O)[O-])cc2[nH]c1=O (stereo not given) ... > 100 µM
3) N#C/C=C\c1ccc(-c2cc(C(F)(F)F)cc(C(F)(F)F)c2)o1 ... 46 µM
4) CC1CCC2[C@@H](C)COC3O[C@]4(C)CCC1C32OO4 (stereo not given in full) ... > 100 µM
5) CCOC(=O)c1c(CN2CCOCC2)n(Cc2ccccc2)c2c1cc(O)c1nc(C)c(C)nc12 ... > 100 µM
6) Cc1cccc2c(=O)c3c(O)cc4c(c3n(C)c12)C=CC(C)(C)O4 ... > 100 µM
7) COc1cc(C2SC(N)=Nc3c2c(C)nn3C(=O)c2ccc(Cl)cc2)ccc1O (stereo not given) ... > 10 µM
8) O[C@H]1[C@@H]2OC[C@@H](O)[C@H](OCc3ccccc3)[C@@](COCc3ccccc3)(O2)[C@@H]1OCc1ccccc1 ... 26.1 µM
9) COc1ccc(-c2c(C#N)cnc(N)c2-c2nc3cc(C)c(C)cc3[nH]2)cc1 ... 23.4 µM
10) COC(=O)C1=C(O)C(C(=O)OC)[C@@]2(O)[C@@H](C(=O)OC)C(c3ccccc3Cl)C[C@@H]1[C@@H]2C(=O)OC (stereo not given in full) ... 23.8 µM

Qu. Please give the measured TGI for this compound: `Cc1cc2nc3c(C#N)c4c(c(Nc5ccc(Cl)cc5)n3c2cc1C)CCC4`
Ans. > 100 µM

Qu. Repeat with CC(=O)Nc1ccccc1S(=O)c1ccccc1 (stereo not given)
Ans. > 100 µM

Qu. Repeat with CCC12C=CCN3CCC4(C(=C(C(=O)OC)C1)Nc1ccccc14)[C@H]32 (stereo not given in full)
Ans. 92.6 µM

Qu. Repeat with `CC(C)(C)c1cc2c(O)c(c1)COCc1cc(C(C)(C)C)cc(c1O)COCc1cc(C(C)(C)C)cc(c1O)COC2`
Ans. > 100 µM

Qu. Repeat with COc1ccccc1NC1=NCC(C)S1 (stereo not given)
Ans. > 100 µM

###

The following compounds are listed with their measured TGI values.
Tested on: MDA-MB-231 breast
Test summary: NCI tumour cell line growth inhibition, 48 h
Quick note: give the figure in µM, leave out the unit.

Solved cases (7 shown):
1. CCc1ncc(C(C)(O)c2ccccc2)n1Cc1ccccc1 (stereo not drawn) ... 96.3
2. NC(=S)N=Nc1c(O)[nH]c2ccccc12 ... 385
3. CC(=O)Nc1cc(CN2CCCCC2)c(O)c2ncccc12 ... 55.6
4. CC(=O)Oc1ccc2c3c1[C@@H]1O[C@@H]1c1cccc(c1-3)[C@@H]1O[C@H]21 ... 3.64
5. O=c1c2cc([N+](=O)[O-])cnc2sn1-c1ccc(Br)cc1 ... 73.4
6. CCCCn1c2c(n(CCCC)c1=[Se])-c1c(n(CCCC)c(=[Se])n1CCCC)S[Se][Se]S2 ... 32.2
7. O=c1cc(-c2cccc(Br)c2)[nH]c2cc3c(cc12)OCO3 ... 23.1

Please find the next compound below.
Qu. Find TGI (MDA-MB-231 breast) for the entry `Nc1c(O)c(C(=O)O)cc2ccccc12`
Ans. 28.8

###

Tested on: CAKI-1 renal
Test summary: NCI tumour cell line growth inhibition, 48 h
Measured metric: TGI

Solved cases (5 shown):
1) CCCC(=O)OC1=C(c2ccccc2)Sc2ccccc2-n2cccc21 ... > 10 µM
2) C(=NCCN=Cc1cccc2ccccc12)c1cccc2ccccc12 ... > 100 µM
3) Nc1ncnc2c1ncn2C1OC(C(=O)OCCO)C(O)C1O (stereo not given) ... > 100 µM
4) CC(C)C(=O)CP(=O)(O)O ... > 100 µM
5) CC(C)[C@H]1NC(=O)[C@H]2N=C(O[C@@H]2C)[C@@H]2CCCN2C(=O)[C@H](Cc2ccccc2)NC(=O)[C@@H]2COC(=N2)[C@@H](Cc2ccccc2)NC(=O)[C@@H]2COC1=N2 ... > 100 µM

Qu. Please give the measured TGI for this compound: `O=C1C=C(OCC=C(Cl)Cl)C(=O)c2ccccc21`
Ans. > 100 µM

Qu. Repeat with CN1C(=O)C(O)C[C@@H]1c1ccc(F)cc1 (stereo not given in full)
Ans. > 100 µM

Qu. Repeat with `NC(=S)N=Nc1c(O)[nH]c2ccccc12`
Ans. 251 µM

Qu. Repeat with `COc1cc(OC)c2c(c1Cl)O[C@]1(C2=O)C(OCc2ccccc2)=CC(=O)C[C@H]1C`
Ans. 60.6 µM

Qu. Repeat with `NS(=O)(=O)c1ccc(N=Nc2c(=O)[nH]c3ccc4[nH]cccc4c23)cc1`
Ans. > 25 µM

###

System: RXF 393 renal
Test summary: NCI tumour cell line growth inhibition, 48 h
Measured metric: TGI

Solved cases (8 shown):
1) COc1cc(OC)cc(Oc2nc3c(N)cc(C(F)(F)F)cc3nc2-c2ccccc2)c1 ... > 100 µM
2) O=c1[nH]c(=S)c2[nH]c(=O)n(-c3ccccc3)c2[nH]1 ... > 100 µM
3) CN1CCN(Cc2ccc(NC(=O)c3cncc(C#Cc4ncc5ccccn45)c3)cc2C(F)(F)F)CC1 ... 3.73 µM
4) COC(=O)C(Cc1ccccc1)N=Cc1c(O)c(O)c(C(C)C)c2cc(C)c(-c3c(C)cc4c(C(C)C)c(O)c(O)c(C=NC(Cc5ccccc5)C(=O)OC)c4c3O)c(O)c12 (stereo not drawn) ... 35 µM
5) Cc1c(C(=O)Nc2ccc(Cl)cc2)nc(N)nc1-c1cccc(Cl)c1 ... > 100 µM
6) Cc1ccc(NCc2nnc3c(-c4ccccc4)nc4ccccc4n23)cc1 ... > 100 µM
7) CN(C)c1ccc(/C=N/NC(=O)c2cnc3ccccc3c2)cc1 ... 54.9 µM
8) O[C@H]1[C@@H]2OC[C@@H](O)[C@H](OCc3ccccc3)[C@@](COCc3ccccc3)(O2)[C@@H]1OCc1ccccc1 ... 39.8 µM

Qu. Please give the measured TGI for this compound: `O=Cc1ccc2[nH]c(=O)oc2c1`
Ans. > 100 µM

Qu. Repeat with `CCOC(=O)c1c[nH]c2cc3c(cc2c1=O)CCS3`
Ans. > 100 µM

Qu. Repeat with `O=c1cc(-c2cccc(Br)c2)[nH]c2cc3c(cc12)OCO3`
Ans. 14.3 µM

Qu. Repeat with `COc1ccc([Se]c2ccc(OC)cc2)cc1`
Ans. > 100 µM

Qu. Repeat with `CCCC(=O)OC1=C(c2ccccc2)Sc2ccccc2-n2cccc21`
Ans. > 10 µM
